Target: TRPM7 (Mus musculus, UniProt Q923J1)
Construct: expressed in transfected cells; host or cells: HEK-293 tSA (HEK-293T) cells, transient transfection with Lipofectamine 2000
Sequence (Q923J1 whole entry): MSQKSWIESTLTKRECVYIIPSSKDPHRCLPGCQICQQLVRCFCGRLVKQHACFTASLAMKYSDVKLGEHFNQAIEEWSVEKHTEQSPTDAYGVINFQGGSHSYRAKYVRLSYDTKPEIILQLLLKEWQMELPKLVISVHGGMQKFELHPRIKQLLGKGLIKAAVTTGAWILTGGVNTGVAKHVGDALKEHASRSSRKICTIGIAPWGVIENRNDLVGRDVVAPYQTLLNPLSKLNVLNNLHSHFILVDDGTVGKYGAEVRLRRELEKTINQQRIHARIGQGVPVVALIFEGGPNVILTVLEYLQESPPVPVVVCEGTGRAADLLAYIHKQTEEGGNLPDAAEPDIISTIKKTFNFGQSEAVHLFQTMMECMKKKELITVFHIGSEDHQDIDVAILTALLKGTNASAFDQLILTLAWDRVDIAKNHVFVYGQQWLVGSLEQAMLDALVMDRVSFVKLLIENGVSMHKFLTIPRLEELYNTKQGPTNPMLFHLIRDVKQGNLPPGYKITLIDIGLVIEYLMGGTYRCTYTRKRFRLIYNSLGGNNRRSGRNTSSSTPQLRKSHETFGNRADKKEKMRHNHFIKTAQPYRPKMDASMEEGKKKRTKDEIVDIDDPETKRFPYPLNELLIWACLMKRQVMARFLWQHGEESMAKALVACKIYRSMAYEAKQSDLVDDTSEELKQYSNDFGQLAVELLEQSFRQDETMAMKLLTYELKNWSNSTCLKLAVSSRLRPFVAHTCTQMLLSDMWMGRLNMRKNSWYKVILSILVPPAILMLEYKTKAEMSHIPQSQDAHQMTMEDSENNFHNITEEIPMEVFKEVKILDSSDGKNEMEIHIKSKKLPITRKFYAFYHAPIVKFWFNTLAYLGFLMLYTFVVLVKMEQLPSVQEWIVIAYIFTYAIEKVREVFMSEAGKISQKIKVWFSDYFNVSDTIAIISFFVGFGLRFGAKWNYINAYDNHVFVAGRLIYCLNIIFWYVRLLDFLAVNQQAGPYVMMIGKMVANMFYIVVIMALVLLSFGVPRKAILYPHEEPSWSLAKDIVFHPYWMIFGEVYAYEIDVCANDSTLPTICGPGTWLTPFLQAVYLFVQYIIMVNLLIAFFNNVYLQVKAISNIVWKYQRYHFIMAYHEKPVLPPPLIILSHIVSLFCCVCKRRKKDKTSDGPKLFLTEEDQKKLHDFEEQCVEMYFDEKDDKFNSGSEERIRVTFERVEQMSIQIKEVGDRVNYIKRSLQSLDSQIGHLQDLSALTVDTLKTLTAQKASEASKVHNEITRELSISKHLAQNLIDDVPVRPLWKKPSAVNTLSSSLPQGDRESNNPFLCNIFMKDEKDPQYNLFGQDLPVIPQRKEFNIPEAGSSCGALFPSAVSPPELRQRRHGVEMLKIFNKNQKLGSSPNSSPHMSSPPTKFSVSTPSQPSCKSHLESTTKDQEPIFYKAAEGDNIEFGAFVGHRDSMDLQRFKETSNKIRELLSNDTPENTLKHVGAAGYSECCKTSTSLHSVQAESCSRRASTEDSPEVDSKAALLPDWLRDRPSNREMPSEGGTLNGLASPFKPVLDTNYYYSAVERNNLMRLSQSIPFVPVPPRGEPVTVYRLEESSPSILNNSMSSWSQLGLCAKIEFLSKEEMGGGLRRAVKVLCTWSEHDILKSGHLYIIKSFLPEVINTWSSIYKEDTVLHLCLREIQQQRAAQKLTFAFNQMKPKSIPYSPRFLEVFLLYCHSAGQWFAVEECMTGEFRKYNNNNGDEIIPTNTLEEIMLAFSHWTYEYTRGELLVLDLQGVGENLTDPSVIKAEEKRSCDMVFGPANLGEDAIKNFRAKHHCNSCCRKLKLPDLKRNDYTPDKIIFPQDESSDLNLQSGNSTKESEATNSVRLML
Assay: PI uptake cell death assay in TRPM7-expressing HEK-293 cells (type of assay from Example 1)
Format: cell-based, murine
Settings: 10 μM; Table Y, commercially available compounds
We begin with a simple list: items and their reported Normalized ratio of PI uptake (10 μM).
Lab note: record just the number, no unit beside it.

Example results:
Cc1c(Cc2ccccc2)c(=O)oc2cc(O)c(Cl)cc12 [STOCK6S- 31467 #2, reference compound]; 0.1
CC1c2ccsc2CCN1C(=O)c1[nH]c2ccccc2c1Cl (stereo not shown) [T6899791 #8, reference compound]; 0

Item under review: O=C(NC1CCOc2ccccc21)c1cc2ccccc2[nH]1 (stereo not shown) [T6749380 #12, reference compound] . Reported Normalized ratio of PI uptake (10 μM)?
0.029

Item under review: Cc1c(Cc2c(Cl)cccc2Cl)c(=O)oc2cc(O)c(Cl)cc12 [RJF00028SC #11, reference compound] . Reported Normalized ratio of PI uptake (10 μM)?
0.136
